As shown below, each of these molecules has a reported kinase still bound, per cent of control value.
MEASURED ON: UniProtKB Q9BUB5
Sequence (Q9BUB5 whole entry, looked up): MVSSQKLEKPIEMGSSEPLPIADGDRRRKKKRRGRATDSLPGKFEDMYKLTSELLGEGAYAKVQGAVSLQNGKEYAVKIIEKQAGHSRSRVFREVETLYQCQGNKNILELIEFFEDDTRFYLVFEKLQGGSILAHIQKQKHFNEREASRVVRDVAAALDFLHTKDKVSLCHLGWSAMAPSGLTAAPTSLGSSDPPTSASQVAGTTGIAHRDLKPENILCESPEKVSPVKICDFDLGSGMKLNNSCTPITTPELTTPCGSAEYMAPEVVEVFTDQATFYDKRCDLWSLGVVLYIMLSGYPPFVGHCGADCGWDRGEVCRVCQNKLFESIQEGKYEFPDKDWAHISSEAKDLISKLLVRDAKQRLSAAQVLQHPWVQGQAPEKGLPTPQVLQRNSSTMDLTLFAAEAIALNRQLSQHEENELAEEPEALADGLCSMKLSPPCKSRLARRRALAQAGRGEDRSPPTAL
TEST PROTOCOL: KINOMEscan competition binding
CONDITION DETAILS: compound 10.0 µM

# MOLECULE, UNITS OF MEASURE, kinase still bound, per cent of control
measured = [
    ("O=C1NC(=O)/C(=C/c2ccc3nccc(-c4ccncc4)c3c2)S1", "%", 84),
    ("N#CCNC(=O)c1ccc(-c2ccnc(Nc3ccc(N4CCOCC4)cc3)n2)cc1", "%", 84),
    ("CN(C)C/C=C/C(=O)Nc1ccc(C(=O)Nc2cccc(Nc3nccc(-c4cccnc4)n3)c2)cc1", "%", 42),
    ("C[C@@H](Oc1cc(-c2cnn(C3CCNCC3)c2)cnc1N)c1c(Cl)ccc(F)c1Cl", "%", 100),
    ("C=CC(=O)Nc1ccc(CN(C(=O)Nc2c(Cl)c(OC)cc(OC)c2Cl)c2cc(Nc3ccc(N4CCN(C)CC4)cc3)ncn2)cc1", "%", 100),
    ("CCN(CC)CCCCNc1ncc2cc(-c3cc(OC)cc(OC)c3)c(NC(=O)NC(C)(C)C)nc2n1", "%", 100),
    ("COc1cc(N2CCN(C)CC2)ccc1Nc1ncc2c(n1)N(C)c1ccccc1C(=O)N2C", "%", 100),
    ("O=C(Nc1cccc(Nc2ncc(Br)c(NCCc3cnc[nH]3)n2)c1)N1CCCC1", "%", 100),
    ("NC(=O)Nc1cc(-c2cccc(F)c2)sc1C(=O)N[C@@H]1CCCNC1", "%", 6),
]

Taken from the kinase profiling compilation of Christmann-Franck et al. (2016).
